Molecular target: TYRO3 (Homo sapiens, UniProt Q06418)
Construct: purchased DiscoverX (KINOMEscan)
Sequence (Q06418 41-890): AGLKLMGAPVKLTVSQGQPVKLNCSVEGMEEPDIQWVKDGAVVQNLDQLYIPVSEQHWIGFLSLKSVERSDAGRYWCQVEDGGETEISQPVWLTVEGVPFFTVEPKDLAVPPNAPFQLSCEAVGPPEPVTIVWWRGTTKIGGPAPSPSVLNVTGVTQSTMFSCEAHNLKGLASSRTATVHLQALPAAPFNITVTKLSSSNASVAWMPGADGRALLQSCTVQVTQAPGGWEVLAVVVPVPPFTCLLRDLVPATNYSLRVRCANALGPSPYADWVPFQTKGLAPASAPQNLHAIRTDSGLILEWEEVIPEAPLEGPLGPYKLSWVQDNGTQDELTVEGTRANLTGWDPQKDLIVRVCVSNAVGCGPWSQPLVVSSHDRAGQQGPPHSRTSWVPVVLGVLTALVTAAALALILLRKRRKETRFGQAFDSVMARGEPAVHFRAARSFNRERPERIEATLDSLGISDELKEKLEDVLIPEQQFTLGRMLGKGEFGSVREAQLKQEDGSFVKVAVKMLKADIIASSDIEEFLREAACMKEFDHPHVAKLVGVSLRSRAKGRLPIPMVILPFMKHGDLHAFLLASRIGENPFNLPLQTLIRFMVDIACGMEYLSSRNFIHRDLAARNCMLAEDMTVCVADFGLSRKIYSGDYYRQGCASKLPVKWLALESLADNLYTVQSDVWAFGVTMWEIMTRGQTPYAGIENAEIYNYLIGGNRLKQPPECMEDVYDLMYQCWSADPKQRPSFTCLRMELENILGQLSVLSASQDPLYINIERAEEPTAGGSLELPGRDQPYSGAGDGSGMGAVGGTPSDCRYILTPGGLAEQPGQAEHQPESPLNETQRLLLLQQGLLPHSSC
Test: KINOMEscan competitive binding
Details: n=1, read-out: Percent inhibition, TYRO3
readout-type: inhibition at 10 µM (%)
Return type: number; implicit unit %.

Summary for this compound, Cc1ccc(O)cc1Nc1ccnc(Nc2cccc(C(N)=O)c2)n1 : inhibition at 10 µM is 100

Summary for this compound, Cc1ccc(O)cc1N(C)c1ccnc(Nc2cccc(S(N)(=O)=O)c2)n1 : inhibition at 10 µM is 100

Summary for this compound, COc1cc(Nc2nccc(-c3sc(N)nc3-c3cccc(NC(=O)c4c(F)cccc4F)c3)n2)cc(OC)c1OC : inhibition at 10 µM is 100

Summary for this compound, Fc1cccc(COc2ccc(Nc3ncnc4c3CN(CCN3CCOCC3)CC4)cc2Cl)c1 : inhibition at 10 µM is 0

Summary for this compound, c1ccc(COc2cccc(-c3ccnc4[nH]ccc34)c2)cc1 : inhibition at 10 µM is 0

Cited source: paper PMC9927415
